Values were extracted from paper PMC12319226.

# Study System: T1, fHbp m001691 (Neisseria meningitidis; fHbp …, point mutant)
# T1 chain: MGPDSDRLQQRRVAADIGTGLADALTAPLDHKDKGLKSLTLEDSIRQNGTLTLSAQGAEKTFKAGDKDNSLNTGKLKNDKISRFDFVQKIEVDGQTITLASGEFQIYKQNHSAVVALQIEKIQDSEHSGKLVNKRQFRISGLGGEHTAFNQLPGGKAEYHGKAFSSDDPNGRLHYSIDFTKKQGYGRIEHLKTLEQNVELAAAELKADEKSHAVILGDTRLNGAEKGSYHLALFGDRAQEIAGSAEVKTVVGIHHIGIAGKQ
# Experiment Notes: BLI
# Condition Summary: both partners purified
Each entry below lists one item and its recorded Kd value.
Observable: Kd (nM)

[
  {
    "Binder": "chimeric antibody h12C1 (antibody, V domains shown, also called humanized 12C1; source: Expi293, purified (MabSelect SuRe, SEC); copies: 2 + 2) VH: QVQLQESGPELVKPGASVKISCKASGYSFSDYNMSWVKQSNGKSLEWIGIIDPKYGTINYNQKFKGKATLTVDQASSTAYMQLNSLTSEDSAVYYCVRDYYGSSYFDYWGQGTTLTVSS VL: DIVLTQSPSSIYASLGERVTLTCKASQDIHNYLNWFQQKPGKSPKTLIYRANRLVDGVPSRFSGGGSGQDYSLTISSLEFEDIGIYYCLQYDEFPPTFGGGTRLEIK",
    "Observable": "Kd",
    "Unit": "nM",
    "Reported Result": 34
  },
  {
    "Binder": "mAb 1E6 (human) (antibody, V domains shown, source: Expi293, purified (MabSelect SuRe, SEC); copies: 2 + 2) VH: EVQLVQSGAEVKKPGSSVKVSCKASGGTVIDYPITWVRQAPGQGLEWVGGFVPLFRTSNYGQKFQGRVTITADKSTSTASMELNSLTSEDTAIYYCARGDTAMGPFDYWGQGTLVTVSS VL: SYVLTQPPSLSVAPGKTATLTCGGNNIAGKTVHWYQQRPGQAPVLVISYDSDRPSGIPERFSGSNSANTATLTISRVEAGDEADYYCQVWDRNSDHWVFGGGTKLTVL",
    "Observable": "Kd",
    "Unit": "nM",
    "Reported Result": 1.01
  },
  {
    "Binder": "mAb 4B3 (human) (antibody, V domains shown, also called 4B3-2; source: Expi293, purified (MabSelect SuRe, SEC); copies: 2 + 2) VH: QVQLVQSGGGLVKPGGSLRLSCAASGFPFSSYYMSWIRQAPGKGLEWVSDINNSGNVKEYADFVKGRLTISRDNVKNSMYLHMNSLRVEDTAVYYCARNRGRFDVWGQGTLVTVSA VL: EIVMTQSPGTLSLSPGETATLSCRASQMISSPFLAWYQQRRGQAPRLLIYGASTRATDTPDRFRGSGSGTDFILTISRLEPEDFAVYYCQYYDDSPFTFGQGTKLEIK",
    "Observable": "Kd",
    "Unit": "nM",
    "Reported Result": 3.1
  },
  {
    "Binder": "chimeric antibody hJAR5 (antibody, V domains shown, also called hJAR5-2; humanized JAR5; source: Expi293, purified (MabSelect SuRe, SEC); copies: 2 + 2) VH: QVQMQQPGAELVKPGASVKLSCKASGYTFISYWMHWVKQRPGRGLEWIGRIAPDTGIIYYNEKFKNKATLTVDTPSSTAYMQLNSLTSEDSAVYYCARYLKYDGSTYRFDYWGQGTTLTVSS VL: DIVMTQAAPSVPVTPGESVSISCRSSKSLLHSNGNTYLFWFLQRPGQSPQLLIYRMSNLASGVPDRFSGSGSGTSFTLRISRVEAEDVGVYYCMQHLEYPYTFGGGTKLEIK",
    "Observable": "Kd",
    "Unit": "nM",
    "Reported Result": 0.838
  }
]
